# Test method notes: clinical
# Test settings: both, human, in vivo, po, Tmax, range over both doses
# Experimental: To each sample of participant plasma or urine, A. aerogenes sulfatase (2.5 µL; 10–20 units/mL), and E. coli glucuronidase (2.5 µL; ∼5,000–50,000 units/mL) were used to release the analytes from their sulfate and β-D-glucuronic acid esters (Phase II metabolites). […] Sample preparation and analysis: Plasma and urine sample preparation and analyte quantification by LC-MS/MS were performed in duplicate for each time point and visit (Sections 2.2–2.4). […]
Measurement kind: Tmax

Looking up C[C@H]1[C@H](C)CC[C@]2(C(=O)O)CC[C@]3(C)C(=CC[C@@H]4[C@@]5(C)C[C@@H](O)[C@H](O)[C@@](C)(CO)[C@@H]5CC[C@]43C)[C@H]12 , I see its Tmax listed as 2.2 to 2.8 h

###

# Test settings: single oral 2 g CAW (CAP), n = 7, mean (SEM)
I'd be grateful if you could share measured Total urinary excretion (12 hr) for these entries.

Each compound below has a recorded value; state its Total urinary excretion (12 hr).
1. COc1ccc(/C=C/C(=O)O)cc1O
2. O=C(O)CCc1ccc(O)c(O)c1 [DHCA, Dihydrocaffeic acid]
3. COc1cc(/C=C/C(=O)O)ccc1O
4. O=C(O)CCc1cccc(O)c1 [HPP, 3-(3-hydroxyphenyl) propionic acid]

["65.9 (23.1) µg", "26.8 (10.0) µg", "146.8 (33.5) µg", "223.4 (76.7) µg"]

###

# Test method notes: Phase 1 pharmacokinetic trial of CAP, plasma analysis by HPLC-MS/MS
# Test settings: both, human, plasma, po, 2 g, Tmax, single oral 2 g CAW (CAP), n = 7, mean (SEM)
Please provide measured Tmax for the entries that follow.
Numbers only, in h.

Worked cases, answers included:
Molecule: O=C(O)CCc1ccc(O)c(O)c1 [DHCA, Dihydrocaffeic acid]
Tmax, h: 6.1
--
Molecule: COc1ccc(/C=C/C(=O)O)cc1O
Tmax, h: 2.4

Now for the molecule whose Tmax we want.
Kindly note the recorded Tmax for O=C(O)CCc1cccc(O)c1 [HPP, 3-(3-hydroxyphenyl) propionic acid] , which is 7.4

###

# Test method notes: Phase 1 pharmacokinetic trial of CAP, plasma analysis by HPLC-MS/MS
# Test settings: both, human, plasma, po, 4 g, T1/2, single oral 4 g CAW (CAP), n = 7, mean (SEM)
# Procedure: To each sample of participant plasma or urine, A. aerogenes sulfatase (2.5 µL; 10–20 units/mL), and E. coli glucuronidase (2.5 µL; ∼5,000–50,000 units/mL) were used to release the analytes from their sulfate and β-D-glucuronic acid esters (Phase II metabolites). […] Sample preparation and analysis: Plasma and urine sample preparation and analyte quantification by LC-MS/MS were performed in duplicate for each time point and visit (Sections 2.2–2.4). […]
Provide the reported half-life of each item.
Answer shape: numeric part, then the unit.

// worked examples, half-life included
Molecule: O=C(O)CCc1ccc(O)c(O)c1 [DHCA, Dihydrocaffeic acid]
half-life: 1.9 h
--
Molecule: O=C(O)CCc1cccc(O)c1 [HPP, 3-(3-hydroxyphenyl) propionic acid]
half-life: 2.6 h

Now, please, on to the next molecule.
get_value(item= COc1ccc(/C=C/C(=O)O)cc1O [IFA, isoferulic acid] , readout=half-life) returns 3.5 h

###

Give Cmax for every item shown.
# Test method notes: clinical
# Test settings: both, human, in vivo, po, Cmax
Field note: include the unit after the figure.

Molecule: O=C(O)/C=C/c1ccc(O)c(O)c1
Cmax: 0.5 ng/mL

Shift focus to the following entry.
The measured Cmax associated with COc1cc(CCC(=O)O)ccc1O [DHFA, Dihydroferulic acid] reads 9.3 ng/mL

###

# Test method notes: clinical
# Test settings: both, human, in vivo, po, Cmax, range over both doses
# Method: To each sample of participant plasma or urine, A. aerogenes sulfatase (2.5 µL; 10–20 units/mL), and E. coli glucuronidase (2.5 µL; ∼5,000–50,000 units/mL) were used to release the analytes from their sulfate and β-D-glucuronic acid esters (Phase II metabolites). […] Sample preparation and analysis: Plasma and urine sample preparation and analyte quantification by LC-MS/MS were performed in duplicate for each time point and visit (Sections 2.2–2.4). […]
Measurement kind: Cmax

// C[C@H]1[C@H](C)CC[C@]2(C(=O)O)CC[C@]3(C)C(=CC[C@@H]4[C@@]5(C)C[C@@H](O)[C@H](O)[C@@](C)(CO)[C@@H]5CC[C@]43C)[C@H]12 : Cmax value = 174 to 372 ng/mL

###

Give Cmax for every item shown.
# Test method notes: clinical
# Test settings: both, human, in vivo, po

Molecule: C[C@H]1[C@H](C)CC[C@]2(C(=O)O)CC[C@]3(C)C(=CC[C@@H]4[C@@]5(C)C[C@@H](O)[C@H](O)[C@@](C)(CO)[C@@H]5[C@H](O)C[C@]43C)[C@H]12
Cmax: 107 to 197 ng/mL

Continue with the molecule presented below.
Data point: COc1cc(CCC(=O)O)ccc1O [DHFA, Dihydroferulic acid] ; Cmax = 8.1 (2.9) ng/mL

###

# Test method notes: Phase 1 pharmacokinetic trial of CAP, plasma analysis by HPLC-MS/MS
# Test settings: both, human, plasma, po, 2 g, AUC(0-12), single oral 2 g CAW (CAP), n = 7, mean (SEM)
Measurement kind: AUC(0-t) (ng·h/mL)
Give bare numbers, in ng·h/mL.

Compound: O=C(O)CCc1cccc(O)c1 [HPP, 3-(3-hydroxyphenyl) propionic acid]
Readout unit: ng·h/mL
AUC(0-t): 56.8

Compound: COc1ccc(/C=C/C(=O)O)cc1O
Readout unit: ng·h/mL
AUC(0-t): 5.3

The value of AUC(0-t) measured for the compound O=C(O)CCc1ccc(O)c(O)c1 [DHCA, Dihydrocaffeic acid] turned out to be 1.7

###

# Test method notes: clinical
# Test settings: both, human, in vivo, po, 2 g
Measurement kind: Tmax (h)
Give bare numbers, in h.

Recorded result, C[C@H]1[C@H](C)CC[C@]2(C(=O)O)CC[C@]3(C)C(=CC[C@@H]4[C@@]5(C)C[C@@H](O)[C@H](O)[C@@](C)(CO)[C@@H]5[C@H](O)C[C@]43C)[C@H]12 [MA, madecassic acid] , Tmax: 2.4

Data origin, for the record: paper PMC10481538
